# System: panelists
# Measurement protocol: Confirmation of umami imparting and saltiness enhancing effect in 0.3 mass % sodium chloride (point score)
# Format: in vivo
# Assay context: 0.1 ppb in aqueous 0.3 mass % sodium chloride solution; average point of 10 panelists vs control; 0 no change, 1 slightly higher, 2 higher, 3 considerably higher, 4 extremely higher umami and saltiness, 5 bitter as lacking balance
The molecules listed here are annotated with their umami and saltiness (average point).
Test readout: umami and saltiness (average point)

>>> measured_result("Cc1ccc(C)c(COCCCc2ccccn2)c1")
0.5
>>> measured_result("c1ccc(CCSCCc2ccccn2)cc1")
0.6
>>> measured_result("Cc1ccc(COCCCc2ccccn2)cc1 [invention product 5, 2-[3-(p-methylbenzyloxy)propyl]pyridine]")
0.8
>>> measured_result("c1ccc(COCCc2ccccn2)cc1 [comparative product 1, 2-(2-benzyloxyethyl)pyridine, reference compound]")
0.0
>>> measured_result("COc1ccc(COCCCc2ccccn2)cc1 [invention product 3, 2-[3-(p-methoxybenzyloxy)propyl]pyridine]")
0.8
>>> measured_result("c1ccc(COCCCCc2ccccn2)cc1")
0.8
>>> measured_result("c1ccc(CCOCCc2ccccn2)cc1")
0.7
